# Target desc: PDE4B (Homo sapiens)
# Sequence (Q07343 whole entry, species assumed): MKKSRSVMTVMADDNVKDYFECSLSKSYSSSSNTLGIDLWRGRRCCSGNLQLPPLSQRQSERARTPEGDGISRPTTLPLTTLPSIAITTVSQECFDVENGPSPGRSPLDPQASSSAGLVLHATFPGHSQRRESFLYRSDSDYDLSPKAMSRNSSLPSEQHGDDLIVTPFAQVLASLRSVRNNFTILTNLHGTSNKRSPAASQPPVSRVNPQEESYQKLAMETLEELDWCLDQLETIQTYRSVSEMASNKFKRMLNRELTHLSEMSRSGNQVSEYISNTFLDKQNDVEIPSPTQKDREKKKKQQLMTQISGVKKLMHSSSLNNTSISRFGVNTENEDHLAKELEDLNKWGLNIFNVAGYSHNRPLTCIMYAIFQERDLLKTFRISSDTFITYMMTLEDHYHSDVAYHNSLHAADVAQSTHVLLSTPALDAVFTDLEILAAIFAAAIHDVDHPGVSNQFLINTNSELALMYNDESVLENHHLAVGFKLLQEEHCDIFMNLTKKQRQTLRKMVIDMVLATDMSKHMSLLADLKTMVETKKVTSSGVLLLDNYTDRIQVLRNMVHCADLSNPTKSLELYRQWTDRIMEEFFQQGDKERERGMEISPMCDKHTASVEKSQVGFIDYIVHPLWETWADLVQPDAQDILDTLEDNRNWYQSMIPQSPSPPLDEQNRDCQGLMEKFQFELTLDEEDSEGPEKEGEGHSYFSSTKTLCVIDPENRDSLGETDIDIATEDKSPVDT
# Experiment notes: Scintillation Proximity Assay (SPA) of PDE4B enzymatic activity ([H3]-cAMP cleavage)
# Assay type: biochemical
# Condition details: test substance 1 μM; one-hour incubation with [H3]-cAMP and PDE4B at 30° C.
# Procedure: The Scintillation Proximity Assay (SPA) (GE Healthcare, No. TRKQ7090) was carried out by using the different affinities of cyclic 3″-5″-adenosinemonophosphate (cAMP, low affinity) and linear 5″-adenosinemonophosphate (AMP, high affinity) for yttrium silicate scintillator beads. […] This [H3]-AMP accumulates on the scintillator beads because of its higher affinity for them and causes scintillation events (flashes of light) which are measured in a Wallac Microbeta Scintillation Counter. […]
Counter-ions that a name gives are not always drawn.
Recorded endpoint: inhibition at 1 µM (%)

Compound: CC(C)[C@H](CO)Nc1nc(N2CCN(c3ccc(Cl)nn3)CC2)nc2c1[S+]([O-])CC2 (stereo partly shown) [Example 6]
inhibition at 1 µM [%]: 93
--
Compound: COc1cccc2c1nc(N1CCN(c3nc4c(c(N[C@@H](CO)C(C)C)n3)[S+]([O-])CC4)CC1)n2C (stereo partly shown) [Example 23]
inhibition at 1 µM [%]: 83
--
Compound: CC(C)[C@H](CO)Nc1nc(N2CCN(c3ccnc(O)c3)CC2)nc2c1[S+]([O-])CC2 (stereo partly shown) [Example 29]
inhibition at 1 µM [%]: 94
--
Compound: [O-][S+]1CCc2nc(N3CCN(c4ccc(Cl)nn4)CC3)nc(Nc3cccc(F)c3)c21 (stereo not shown) [Example 7]
inhibition at 1 µM [%]: 95
--
Compound: [O-][S+]1CCc2nc(N3CCN(c4ccncn4)CC3)nc(NC3(CO)CC3)c21 (stereo not shown) [Example 55]
inhibition at 1 µM [%]: 95
--
Compound: CC(C)[C@H](CO)Nc1nc(N2CCN(c3ccnnc3)CC2)nc2c1[S+]([O-])CC2 (stereo partly shown) [Example 39, trifluoroacetate]
inhibition at 1 µM [%]: 92
--
Compound: CC(C)[C@H](CO)Nc1nc(N2CCN(c3cc(Cl)nnc3O)CC2)nc2c1[S+]([O-])CC2 (stereo partly shown) [Example 37]
inhibition at 1 µM [%]: 90

Data origin: patent US9115142B2
